Each entry below lists one item and its recorded Kd value.
Target: HLA-A*02:06
Assay: IEDB peptide-MHC binding, purified MHC/competitive/radioactivity; filed as Kd, often an IC50 or EC50 that approximates it; bounds were set here for any values at or beyond the usual limits of such assays
Conditions: source organism: Vaccinia virus Copenhagen
Give the value in nM but do not write nM after it.

[
  {
    "SEQ": "FVDTMSIYI",
    "PROPERTY_MEASURED": "Kd",
    "OBSERVED": 16.1
  }
]

Please find the next sequence below.
Query: Look at this sequence and give its reported Kd. LIAGIILLIL
Reply: 345

----------
Target: HLA-A*03:01
Assay: IEDB peptide-MHC binding, purified MHC/competitive/radioactivity; filed as Kd, often an IC50 or EC50 that approximates it; bounds were set here for any values at or beyond the usual limits of such assays
Details: source organism: Triticum aestivum
PROPERTY_MEASURED: Kd

Query: May I ask what Kd has been recorded for AMCNVYIPPY ?
Reply: 152 nM

----------
Target: HLA-A*32:15
Assay: IEDB peptide-MHC binding, purified MHC/competitive/fluorescence; filed as Kd, often an IC50 or EC50 that approximates it; bounds were set here for any values at or beyond the usual limits of such assays
Details: source organism: Shewanella sp. W3-18-1
PROPERTY_MEASURED: pKd
Please express pKd as -log10 of the molar concentration.

Query: Which pKd value is on record for LMMSSPPPI ?
Reply: 6.86

----------
Target: HLA-A*11:01
Assay: IEDB peptide-MHC binding, purified MHC/direct/fluorescence; filed as Kd, often an IC50 or EC50 that approximates it; bounds were set here for any values at or beyond the usual limits of such assays
Settings: source organism: Aracatuba virus
PROPERTY_MEASURED: Kd

Query: What measured Kd goes with LLLLISLVY ?
Reply: ≥ 20 µM

----------
Biological target: HLA-B*40:01
Assay: IEDB peptide-MHC binding, purified MHC/competitive/radioactivity; filed as Kd, often an IC50 or EC50 that approximates it; bounds were set here for any values at or beyond the usual limits of such assays
Conditions: source organism: Lymphocytic choriomeningitis virus (strain Armstrong)
PROPERTY_MEASURED: Kd

Query: GET /values?readout=Kd&system=HLA-B*40:01&item= ADQAIANGV
Reply: ≥ 73.5 µM

----------
Target: HLA-B*44:02
Experiment: IEDB peptide-MHC binding, purified MHC/direct/fluorescence; filed as Kd, often an IC50 or EC50 that approximates it; bounds were set here for any values at or beyond the usual limits of such assays
Conditions: source organism: Influenza A virus (A/tiger/Thailand/CU-T6/04(H5N1))
pKd: −log10 of the molar value.
PROPERTY_MEASURED: pKd

Query: Looking for the measured pKd of TYQWIIRNW , can you help?
Reply: ≤ 4.70

----------
Molecular target: HLA-B*46:01
Test: IEDB peptide-MHC binding, purified MHC/competitive/fluorescence; filed as Kd, often an IC50 or EC50 that approximates it; bounds were set here for any values at or beyond the usual limits of such assays
Settings: source organism: Lechiguanas virus
pKd: −log10 of the molar value.
PROPERTY_MEASURED: pKd

Query: Suppose we examine the sequence LQPSDTLLF ; what pKd value has been reported?
Reply: ≤ 4.70

----------
Target: HLA-B*46:01
Assay: IEDB peptide-MHC binding, purified MHC/competitive/fluorescence; filed as Kd, often an IC50 or EC50 that approximates it; bounds were set here for any values at or beyond the usual limits of such assays
Details: source organism: Influenza A virus (A/swine/Italy/1513-1/1998(H1N1))
PROPERTY_MEASURED: Kd

Query: Entry under review: MMWEINGPK . Reported Kd?
Reply: ≥ 20 µM

----------
Target: HLA-A*24:02
Assay: IEDB peptide-MHC binding, purified MHC/competitive/fluorescence; bounds were set here for any values at or beyond the usual limits of such assays
Details: source organism: Vaccinia virus
pIC50: −log10 of the molar value.
PROPERTY_MEASURED: pIC50

Query: What measured pIC50 goes with EYSKDSRNK ?
Reply: ≤ 3.55

----------
Target: HLA-B*27:03
Test: IEDB peptide-MHC binding, purified MHC/direct/fluorescence; filed as Kd, often an IC50 or EC50 that approximates it; bounds were set here for any values at or beyond the usual limits of such assays
Conditions: source organism: Salmonella enterica subsp. enterica serovar Typhimurium
pKd: −log10 of the molar value.
PROPERTY_MEASURED: pKd

Query: Under HLA-B*27:03: pKd value of WPVMQWLTA ?
Reply: ≤ 4.70

----------
Overview of reported pKd across a group of sequences:
Molecular target: HLA-A*01:01
Test: IEDB peptide-MHC binding, purified MHC/competitive/radioactivity; filed as Kd, often an IC50 or EC50 that approximates it; bounds were set here for any values at or beyond the usual limits of such assays
Conditions: source organism: Triticum aestivum
# pKd is unitless: minus log10 of the molar concentration; print number only

[
  {
    "SEQ": "AMCNVYIPPY",
    "TARGET": "HLA-A*01:01",
    "OBSERVED": 7.08
  }
]

We next turn to a different sequence, shown below.
Query: Lookup: pKd / HLA-A*01:01 / ETLPAMCNVY
Reply: 6.38

----------
Biological target: HLA-B*39:01
Assay: IEDB peptide-MHC binding, purified MHC/direct/fluorescence; filed as Kd, often an IC50 or EC50 that approximates it; bounds were set here for any values at or beyond the usual limits of such assays
Conditions: source organism: Vibrio vulnificus CMCP6
pKd: −log10 of the molar value.
PROPERTY_MEASURED: pKd

Query: Any idea what its pKd is? The sequence is EMSLADYLY
Reply: ≤ 4.70

----------
Biological target: HLA-C*03:03
Test: IEDB peptide-MHC binding, purified MHC/direct/fluorescence; filed as Kd, often an IC50 or EC50 that approximates it; bounds were set here for any values at or beyond the usual limits of such assays
Conditions: source organism: Mammarenavirus juninense
pKd: −log10 of the molar value.
PROPERTY_MEASURED: pKd

Query: What pKd value was documented for this sequence, ASSEPHCAL ?
Reply: ≥ 9.00

----------
Target: HLA-A*26:01
Assay: IEDB peptide-MHC binding, purified MHC/direct/fluorescence; filed as Kd, often an IC50 or EC50 that approximates it; bounds were set here for any values at or beyond the usual limits of such assays
Settings: source organism: Hantavirus Monongahela-3
PROPERTY_MEASURED: Kd (nM)
State the answer as a number, implicitly in nM.

Query: Please give the measured Kd for this sequence: FVKDWMDRI
Reply: 65.6

----------
Target: HLA-B*08:02
Experiment: IEDB peptide-MHC binding, purified MHC/direct/fluorescence; filed as Kd, often an IC50 or EC50 that approximates it; bounds were set here for any values at or beyond the usual limits of such assays
Conditions: source organism: Brucella suis 1330
PROPERTY_MEASURED: Kd

Query: For the sequence shown here, GLAEKPNDY , give the reported Kd.
Reply: ≥ 20 µM

----------
Biological target: HLA-B*44:02
Assay: IEDB peptide-MHC binding, purified MHC/competitive/radioactivity; filed as Kd, often an IC50 or EC50 that approximates it; bounds were set here for any values at or beyond the usual limits of such assays
Conditions: source organism: Lymphocytic choriomeningitis virus (strain Armstrong)
PROPERTY_MEASURED: pKd
Please report pKd as the negative decimal logarithm of the molar concentration, giving only the number.

Query: Which value of pKd has been reported for ADQAIANGV in the records?
Reply: 4.83

----------
Target: HLA-A*02:06
Assay: IEDB peptide-MHC binding, purified MHC/competitive/radioactivity; filed as Kd, often an IC50 or EC50 that approximates it; bounds were set here for any values at or beyond the usual limits of such assays
Conditions: source organism: Dengue virus 2 Jamaica/1409/1983
PROPERTY_MEASURED: pKd
Here pKd is given on a logarithmic scale as minus log10 of the concentration in mol/L.

Query: So what does the record say about pKd for KLAEAIFKL ?
Reply: 7.83

----------
Target: HLA-A*31:01
Test: IEDB peptide-MHC binding, purified MHC/direct/fluorescence; filed as Kd, often an IC50 or EC50 that approximates it; bounds were set here for any values at or beyond the usual limits of such assays
Conditions: source organism: Yersinia pestis
PROPERTY_MEASURED: Kd

Example entries and their recorded answers appear below.
[
  {
    "SEQ": "QLKSRAAVL",
    "Kd": "≥ 20 µM"
  },
  {
    "SEQ": "FMSLQSGDV",
    "Kd": "≥ 20 µM"
  }
]

Query: # query: Kd of entry FLPPQIPVI
Reply: ≥ 20 µM

----------
Target: HLA-A*30:02
Experiment: IEDB peptide-MHC binding, purified MHC/competitive/radioactivity; filed as Kd, often an IC50 or EC50 that approximates it; bounds were set here for any values at or beyond the usual limits of such assays
Conditions: source organism: Dengue virus 4 Philippines/H241/1956
PROPERTY_MEASURED: pKd
Convention used: pKd is expressed as -log10 of the molar concentration.

Illustrative cases are given below, each with its answer.
[
  {
    "SEQ": "STANIFRGSY",
    "TARGET": "HLA-A*30:02",
    "pKd": 8.68
  },
  {
    "SEQ": "ALITVSGLY",
    "TARGET": "HLA-A*30:02",
    "pKd": 9.17
  }
]

Read the next record carefully.
Query: pKd; subject: GVVTKSGDY
Reply: 6.01
